TEST_TARGET: T1, human melanocortin-4 receptor (hMC4-R) (human, UniProt P32245 1-332)
T1 construct: whole, on cells; membranes prepared from hMC4-R cells were used; also called Melanocortin Receptor 4
T1 sequence (P32245 whole entry): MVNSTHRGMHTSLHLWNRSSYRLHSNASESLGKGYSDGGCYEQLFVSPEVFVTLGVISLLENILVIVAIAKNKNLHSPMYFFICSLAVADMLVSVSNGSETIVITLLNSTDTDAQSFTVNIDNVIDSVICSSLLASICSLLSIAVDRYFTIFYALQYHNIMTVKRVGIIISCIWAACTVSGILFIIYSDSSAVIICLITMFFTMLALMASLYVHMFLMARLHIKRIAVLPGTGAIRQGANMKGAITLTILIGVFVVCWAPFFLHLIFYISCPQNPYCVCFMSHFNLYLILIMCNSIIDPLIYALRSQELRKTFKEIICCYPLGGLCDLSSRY
PROTOCOL_TEXT: 125I-NDP-α-MSH competition, hMC4-R membranes
Square brackets hold non-standard residues; d marks the D form. Ends that are not written are not given here. Nle = CCCC[C@H](N)C(=O)O
Consider the following binders and their measured % Inhibition at 1 µM readings.
RECORDED_METRIC: % Inhibition at 1 µM (%)

{"BINDER": "Ac-SY[dC]S[Nle]EHFRWGKPV-NH2 (also: oxorhenium(V) N3S1 chelate at D-Cys3) [metallopeptide 2-12]", "RECORDED_METRIC": "% Inhibition at 1 µM", "UNIT_OF_MEASUREMENT": "%", "NUMERIC_READOUT": 47}
{"BINDER": "Ac-SYS[Nle]EHFRW[dC]GKPV-NH2 (also: oxorhenium(V) N3S1 chelate at D-Cys10) [metallopeptide 2-5]", "RECORDED_METRIC": "% Inhibition at 1 µM", "UNIT_OF_MEASUREMENT": "%", "NUMERIC_READOUT": 4}
{"BINDER": "YV[Nle]GHFRWCDRF-NH2 (also: oxorhenium(V) N3S1 chelate: C9 SG + backbone N of R7, W8, C9, bridge at 9 via Re(V)=O, other end not in the chain) [metallopeptide 4-4]", "RECORDED_METRIC": "% Inhibition at 1 µM", "UNIT_OF_MEASUREMENT": "%", "NUMERIC_READOUT": 39}
{"BINDER": "YV[Nle]GHFRCWDRF-NH2 (also: oxorhenium(V) N3S1 chelate: C8 SG + backbone N of F6, R7, C8, bridge at 8 via Re(V)=O, other end not in the chain) [metallopeptide 4-5]", "RECORDED_METRIC": "% Inhibition at 1 µM", "UNIT_OF_MEASUREMENT": "%", "NUMERIC_READOUT": 74}
{"BINDER": "Ac-SYS[Nle]EHFRWGK[dC]PV-NH2 (also: oxorhenium(V) N3S1 chelate at D-Cys12) [metallopeptide 2-3]", "RECORDED_METRIC": "% Inhibition at 1 µM", "UNIT_OF_MEASUREMENT": "%", "NUMERIC_READOUT": 25}
